Tested on: IGROV-1
Experiment: NCI tumour cell line growth inhibition, 48 h
Active and inactive are the calls of the source. Rule as the data show it: active = GI50 up to about 1.1 µM and inactive = higher.
Outcomes: true (1) (active), false (0) (inactive)

{"columns": ["compound", "classification"],
 "data": [
  ["C=C1CC(CC)(CCN2C(=O)c3ccccc3C2=O)OC1=O (stereo not given)", "false (0)"],
  ["CCCCNC(=O)c1cc(S(=O)(=O)n2ccnc2O)c(SC)cc1Cl", "false (0)"],
  ["COc1cc(/C=C2\\CN(C)CC3=C2N=C(S)NC3c2cc(OC)c(OC)c(OC)c2)cc(OC)c1OC (stereo not given)", "false (0)"],
  ["CCOP(=O)(/C=C/n1cnc2c(=O)n(C(C)=O)c(N)nc21)OCC", "false (0)"],
  ["Cc1cc2c(cc1C)NC1=C(O)C(c3c[nH]c4ccc(COc5ccccc5)cc34)OC1=N2 (stereo not given)", "false (0)"],
  ["COC(=O)C(=O)C(C(=O)C(=O)Nc1ccc(F)cc1)c1nc2ccc([N+](=O)[O-])cc2nc1O (stereo not given)", "false (0)"],
  ["CS(C)(=O)=Nn1c(=O)n2n(c1=O)C1c3ccccc3C2c2ccccc21", "false (0)"],
  ["Cc1cc(C)c2c(O)cc(-c3cccc(Cl)c3)nc2n1", "true (1)"],
  ["CN(C)c1ccc(/C=C/C(=O)CC(=O)/C=C/c2ccc(N(C)C)cc2)cc1", "false (0)"],
  ["COc1c(O)cc2c3c(ccnc13)NC=C2", "false (0)"]
]}

====

Tested on: ACHN
Assay: NCI tumour cell line growth inhibition, 48 h
Calls of active or inactive are those of the source. Cut-off read from the data, not from the text of the source: active = GI50 up to about 1.1 µM and inactive = higher.
Measured GI50, listed per entry for reference.

{"columns": ["molecule", "GI50"],
 "data": [
  ["CCOc1ccc(NC(=S)N/C=C(/C(C)=O)C(=O)Nc2ccccc2C)cc1", "> 100 µM (inactive)"],
  ["COC(=O)c1ccccc1CC(Cc1ccccc1)C(=O)OC (stereo unspecified)", "> 100 µM (inactive)"],
  ["O=S(=O)(O)c1ccc2cc(/N=N/c3c(O)ccc4ccccc34)ccc2c1", "> 100 µM (inactive)"],
  ["COc1c(Sc2ccccc2)cc(Sc2ccccc2)c2cccnc12", "26.8 µM (inactive)"],
  ["CC/C(=N/O)c1ccc2[nH]c3c(C)cc([N+](=O)[O-])c(C)c3c2c1", "25.1 µM (inactive)"],
  ["Cc1cc(-c2nc3c(F)cccc3s2)ccc1N", "30 µM (inactive)"],
  ["COC(=O)C1=C(C(=O)OC)C23C=CC=CC24C(C(=O)OC)=C(C(=O)OC)C4C1C3 (stereo unspecified)", "> 100 µM (inactive)"],
  ["c1ccc2c(c1)c1c(n2CCOCCN2CCOCC2)CCCC1", "30.8 µM (inactive)"],
  ["Clc1ccc(-c2c(C3=NCCN3)nnn2-c2ccc(Cl)cc2)cc1", "39.7 µM (inactive)"],
  ["O=C(CC(C(=O)c1ccoc1)c1ccco1)c1ccco1 (stereo unspecified)", "> 100 µM (inactive)"],
  ["NC(CC(O)(c1ccccc1)c1ccccc1)c1ccccc1S (stereo unspecified)", "13.1 µM (inactive)"]
]}

====

Tested on: RPMI-8226
Assay: NCI tumour cell line growth inhibition, 48 h
Activity calls are given as the source filed them. Rule as the data show it: active = GI50 up to about 1.1 µM and inactive = higher.
Outcomes: 1 (yes) (active), 0 (no) (inactive)

{"columns": ["compound", "classification"],
 "data": [
  ["CC(=O)CC(=O)ON(C)C(C)=O", "0 (no)"],
  ["CC(=O)c1ccccc1NP(=O)(c1ccccc1)c1ccccc1", "0 (no)"],
  ["CC(C)(C)OC(=O)NC(CS(=O)(=O)O)C(=O)O (configuration not stated)", "0 (no)"],
  ["Cc1ccc(-c2nc3cc(F)c(N4CCN(C)CC4)cc3[nH]2)cc1", "0 (no)"],
  ["CC1(C)CCCC2(C)C3=C(CCC12)C(=O)OC3 (configuration not stated)", "0 (no)"],
  ["COc1cc2c(/C=C3/C(=O)N(C)c4ccc(O)cc43)c(Cl)[nH]c2cc1C", "1 (yes)"],
  ["CSC1SCC2C(=O)N(C)C(C(C)C)C(=O)OCC(NC(=O)c3cnc4ccccc4n3)C(=O)NC(C)C(=O)N(C)C1C(=O)N(C)C(C(C)C)C(=O)OCC(NC(=O)c1cnc3ccccc3n1)C(=O)NC(C)C(=O)N2C (configuration not stated)", "1 (yes)"],
  ["Cc1ccc(-c2ccc(Nc3c4ccccc4nc4ccccc34)cc2)cn1", "0 (no)"],
  ["COc1ncnc2c1cnn2Cc1cn(COCC(O)CO)nn1 (configuration not stated)", "0 (no)"],
  ["COc1cc([N+](=O)[O-])cc2c1NC(=O)C2(C)SC (configuration not stated)", "0 (no)"],
  ["CC1(C)CN(CC(=O)O)CC(Cc2ccc(OCC(=O)O)cc2)N(CC(=O)O)CC(C)(C)SS1 (configuration not stated)", "0 (no)"],
  ["COC(=O)CC1(O)C(C=C(C)C)C(C(=O)OC)C(=O)C(C(=O)OC)C1C(=O)OC (configuration not stated)", "0 (no)"],
  ["COC(=O)[C@@]12CC[C@]1(C(=O)OC)C1C(C)=CC(=O)O[C@@]12C (some centres not stated)", "0 (no)"],
  ["CSC12c3cc(C)n(-c4ccccc4)c3CC(C)(C)CN1C(=O)C2Oc1ccccc1 (configuration not stated)", "0 (no)"],
  ["COc1cc([C@@H]2c3cc4c(cc3[C@H](O)[C@H]3COC(=O)[C@H]23)OCO4)cc(OC)c1OC", "1 (yes)"],
  ["C[Si](C)(C)/C=C\\CCCN1C(=O)CCC1=O", "0 (no)"],
  ["CN(C)CCNC1=Nc2ccccc2C(=O)N2CSCC12 (configuration not stated)", "0 (no)"],
  ["CCCCNS(=O)(=O)c1ccc(-c2ccc3c(c2)-c2ccc(S(=O)(=O)NCCCC)cc2S3(=O)=O)cc1", "0 (no)"],
  ["CCN(CC)C(=O)c1cccc2c(OC)ccc(OC)c12", "0 (no)"],
  ["CN(C)CC/[N+]([O-])=C(/c1ccccc1)C12CC3CC(CC(C3)C1)C2", "0 (no)"],
  ["Nc1ncnc2c1N=CN(Oc1ccccc1)N2", "0 (no)"],
  ["COC(=O)C1=C(C(=O)OC)C23C=CC=CC24C(C(=O)OC)=C(C(=O)OC)C4C1C3 (configuration not stated)", "0 (no)"]
]}
